test system: BMSC (primary human bone marrow mesenchymal stromal cells); experiment: absolute EC50 for viability; higher = less sensitive
Each entry below lists one item and its recorded absolute EC50 for viability value.
EXPERIMENTAL_READOUT: absolute EC50 for viability

INSERT INTO measurements (molecule, measured) VALUES
  ('C[C@@H]1C[C@H]2[C@@H]3CCC4=CC(=O)C=C[C@]4(C)[C@@]3(F)[C@@H](O)C[C@]2(C)[C@@]1(O)C(=O)CO', '> 10 µM'),
  ('COc1cc(C(=O)O)ccc1NC(=O)[C@@H]1N[C@@H](CC(C)(C)C)[C@](C#N)(c2ccc(Cl)cc2F)[C@H]1c1cccc(Cl)c1F', '0.576 µM'),
  ('C[C@@H]1CN(CC(=O)Nc2ccc3c(c2)Cc2cccc(-c4cc(=O)cc(N5CCOCC5)o4)c2S3)C[C@H](C)O1', '> 25 µM'),
  ('O=C(Nc1ccc(OC(F)(F)Cl)cc1)c1cnc(N2CC[C@@H](O)C2)c(-c2cc[nH]n2)c1', '> 1 µM'),
  ('C[C@@H](Nc1cc(F)cc(F)c1)c1cc(C(=O)N(C)C)cc2c(=O)cc(N3CCOCC3)oc12', '> 1 µM'),
  ('CC(C)[C@H]1C(=O)N[C@@H](CCCNC(=N)N)C(=O)NCC(=O)N[C@@H](CC(=O)O)C(=O)N[C@H](Cc2ccccc2)C(=O)N1C [Cilengitide]', '> 10 µM'),
  ('Cc1c(N)nc([C@H](CC(N)=O)NC[C@H](N)C(N)=O)nc1C(=O)N[C@H](C(=O)N[C@H](C)[C@@H](O)[C@H](C)C(=O)N[C@H](C(=O)NCCc1nc(-c2nc(C(=O)NCCC[S+](C)C)cs2)cs1)[C@@H](C)O)[C@@H](OC1OC(CO)C(O)C(O)C1OC1OC(CO)C(O)C(OC(N)=O)C1O)c1cnc[nH]1 (some centres undefined)', '> 10 µM'),
  ('CC(C)(O)CC(=O)NCCn1ccc2ncnc(Nc3ccc(Oc4cccc(C(F)(F)F)c4)c(Cl)c3)c21', '> 2.5 µM'),
  ('Nc1ncnc2c1c(COc1cccc(Cl)c1)nn2C1CCOCC1', '> 10 µM'),
  ('Nc1cc(C(F)(F)F)c(-c2cc(N3CCOCC3)nc(N3CCOCC3)n2)cn1', '2.11 µM'),
  ('Cn1cc(-c2ccc(F)c(C(F)(F)F)c2)nc1C1CCN(c2ncnc3[nH]ncc23)CC1', '> 10 µM'),
  ('O=C(Nc1cccnc1)N1CCC(Cc2cccc(Oc3ccc(C(F)(F)F)cn3)c2)CC1', '9.93 µM'),
  ('O=c1[nH]c(C2CCCN2)nc2c1oc1ccc(Cl)cc12 (centres undefined)', '> 10 µM'),
  ('CCN1CCN(Cc2ccc(Nc3ncc(F)c(-c4cc(F)c5nc(C)n(C(C)C)c5c4)n3)nc2)CC1', '> 2.5 µM');

---

system: BMSC (primary human bone marrow mesenchymal stromal cells); experiment: absolute EC50 for viability; higher = less sensitive
EXPERIMENTAL_READOUT: absolute EC50 for viability

INSERT INTO measurements (compound, system_under_test, measured) VALUES
  ('Cc1cc(Nc2cc(N3CCN(C)CC3)nc(/C=C/c3ccccc3)n2)n[nH]1 [ENMD-2076]', 'BMSC (primary human bone marrow mesenchymal stromal cells)', '0.897 µM'),
  ('C[C@H]1C[C@@H](n2c(Nc3ccc(OC(F)(F)F)cc3)nc3cc(CCC(=O)O)ccc32)CC(C)(C)C1', 'BMSC (primary human bone marrow mesenchymal stromal cells)', '> 10 µM'),
  ('Cc1ccc(C(=O)Nc2ccc(Oc3cc4cnn(C)c4cc3-c3cn[nH]c3)c(F)c2)c(=O)n1-c1ccc(F)cc1 [Merestinib]', 'BMSC (primary human bone marrow mesenchymal stromal cells)', '> 1 µM'),
  ('Cc1ccc(NS(=O)(=O)c2cccc(C#N)c2)c2[nH]cc(C#N)c12 [E7820]', 'BMSC (primary human bone marrow mesenchymal stromal cells)', '> 50 µM'),
  ('Nc1cccc2c1C(=O)N(C1CCC(=O)NC1=O)C2=O (stereo not given) [Pomalidomide]', 'BMSC (primary human bone marrow mesenchymal stromal cells)', '> 10 µM'),
  ('Cc1[nH]nc(C(F)(F)F)c1Cc1sc2c(c1C(=O)N1C[C@](C)(O)CO1)c(=O)n(C)c(=O)n2C(C)C [AZD3965]', 'BMSC (primary human bone marrow mesenchymal stromal cells)', '> 1 µM'),
  ('COc1ccc(COc2cc3oc(=O)c4cc(C(C)O)ccc4c3cc2OC)cc1 (stereo not given) [Palomid-529]', 'BMSC (primary human bone marrow mesenchymal stromal cells)', '> 10 µM'),
  ('C[C@@H](NC(=O)c1ncnc(N)c1Cl)c1ncc(C(=O)Nc2cc(C(F)(F)F)c(Cl)cn2)s1 [TAK-580]', 'BMSC (primary human bone marrow mesenchymal stromal cells)', '> 10 µM'),
  ('CCc1c(C(=O)C(N)=O)c2c(OCC(=O)O)cccc2n1Cc1ccccc1 [Varespladib]', 'BMSC (primary human bone marrow mesenchymal stromal cells)', '> 10 µM'),
  ('CC(C)(O)CNc1nc(Nc2ccnc(C(F)(F)F)c2)nc(-c2cccc(C(F)(F)F)n2)n1 [Enasidenib]', 'BMSC (primary human bone marrow mesenchymal stromal cells)', '> 10 µM'),
  ('CO[C@H]1C[C@@H]2CC[C@@H](C)[C@@](O)(O2)C(=O)C(=O)N2CCCC[C@H]2C(=O)O[C@H]([C@H](C)C[C@@H]2CC[C@@H](OCCO)[C@H](OC)C2)CC(=O)[C@H](C)/C=C(\C)[C@@H](O)[C@@H](OC)C(=O)[C@H](C)C[C@H](C)/C=C/C=C/C=C/1C [Everolimus]', 'BMSC (primary human bone marrow mesenchymal stromal cells)', '> 0.1 µM'),
  ('CC(=O)O[C@H]1C(=O)[C@@]2(C)[C@H]([C@H](OC(=O)c3ccccc3)[C@]3(O)C[C@H](OC(=O)[C@H](O)[C@@H](NC(=O)c4ccccc4)c4ccccc4)C(C)=C1C3(C)C)[C@]1(OC(C)=O)CO[C@@H]1C[C@@H]2O [Paclitaxel]', 'BMSC (primary human bone marrow mesenchymal stromal cells)', '> 1 µM'),
  ('CNC(=O)c1ccc(N2C(=S)N(c3cnc(C#N)c(C(F)(F)F)c3)C(=O)C23CCC3)cc1F [Apalutamide]', 'BMSC (primary human bone marrow mesenchymal stromal cells)', '> 10 µM'),
  ('COc1cc2ncnc(Nc3cccc(Cl)c3F)c2cc1OC(=O)N1CCN(C)C[C@H]1C [AZD3759]', 'BMSC (primary human bone marrow mesenchymal stromal cells)', '> 1 µM'),
  ('N#CC[C@H](C1CCCC1)n1cc(-c2ncnc3[nH]ccc23)cn1 [Ruxolitinib]', 'BMSC (primary human bone marrow mesenchymal stromal cells)', '> 10 µM'),
  ('COCCOc1cnc2ccn([C@H](C)c3nnc4c(F)cc(-c5cnn(C)c5)cn34)c(=O)c2c1 [AMG-337]', 'BMSC (primary human bone marrow mesenchymal stromal cells)', '9.93 µM'),
  ('C=CCc1cccc(/C=N/NC(=O)CN2CCN(Cc3ccccc3)CC2)c1O [PAC-1]', 'BMSC (primary human bone marrow mesenchymal stromal cells)', '> 10 µM'),
  ('Clc1ccc(Nc2nnc(Cc3ccncc3)c3ccccc23)cc1 [Vatalanib]', 'BMSC (primary human bone marrow mesenchymal stromal cells)', '> 10 µM'),
  ('Cc1ccc(-n2nc(C(C)(C)C)cc2NC(=O)Nc2ccc(OCCN3CCOCC3)c3ccccc23)cc1 [Doramapimod]', 'BMSC (primary human bone marrow mesenchymal stromal cells)', '> 10 µM'),
  ('COc1cc(OC)c(/C=C/S(=O)(=O)Cc2ccc(OC)c(NCC(=O)O)c2)c(OC)c1 [Rigosertib]', 'BMSC (primary human bone marrow mesenchymal stromal cells)', '> 10 µM'),
  ('C[C@]1(c2nc3c(C(N)=O)cccc3[nH]2)CCCN1 [Veliparib]', 'BMSC (primary human bone marrow mesenchymal stromal cells)', '> 10 µM'),
  ('C=CC(=O)N1CC/C(=C\c2ccc(F)c([N+](=O)[O-])c2)C(=O)/C(=C/c2ccc(F)c([N+](=O)[O-])c2)C1 [VLX1570]', 'BMSC (primary human bone marrow mesenchymal stromal cells)', '1.4 µM'),
  ('COc1cc(Br)c(Nc2nc(-c3c(C)nc4ncccn34)cs2)c(Br)c1 [PTC-209]', 'BMSC (primary human bone marrow mesenchymal stromal cells)', '> 10 µM'),
  ('CC[C@@H]1C(=O)OC[C@@H]1Cc1cncn1C [Pilocarpine]', 'BMSC (primary human bone marrow mesenchymal stromal cells)', '> 40 µM'),
  ('Oc1ccc2c(c1)CC[C@H](c1ccccc1)[C@@H]2c1ccc(OCCN2CCCC2)cc1 [Lasofoxifene]', 'BMSC (primary human bone marrow mesenchymal stromal cells)', '> 1 µM'),
  ('CC(=O)O[C@]1(C(C)=O)CC[C@H]2[C@@H]3C=C(C)C4=CC(=O)CC[C@]4(C)[C@H]3CC[C@@]21C [Megestrol acetate]', 'BMSC (primary human bone marrow mesenchymal stromal cells)', '> 10 µM'),
  ('C#Cc1cccc(Nc2ncnc3cc4c(cc23)OCCOCCOCCO4)c1 [Icotinib]', 'BMSC (primary human bone marrow mesenchymal stromal cells)', '> 10 µM'),
  ('COc1cc2nccc(Oc3ccc(NC(=O)C4(C(=O)Nc5ccc(F)cc5)CC4)cc3)c2cc1OC [Cabozantinib]', 'BMSC (primary human bone marrow mesenchymal stromal cells)', '> 1 µM'),
  ('CCOc1ccn(-c2ccc(F)cc2)c(=O)c1C(=O)Nc1ccc(Oc2ccnc(N)c2Cl)c(F)c1', 'BMSC (primary human bone marrow mesenchymal stromal cells)', '> 2.5 µM'),
  ('Cc1cc(F)c(C(=O)Nc2cccc(-c3nncn3C(C)C)n2)cc1-n1cnc(C2CC2)c1 [Selonsertib]', 'BMSC (primary human bone marrow mesenchymal stromal cells)', '> 1 µM');
